# Tested on: HS 578T breast
# experiment-summary: NCI-60 one-dose screen, 48 h (100 = growth as untreated, 0 = no growth, -100 = all killed)
# experimental-context: 10 µM unless noted
Compounds without any hit were thinned out: in the full panel of roughly 83,000, 20% have a hit.
readout-label: growth (%)

>>> df
                                    molecule  target_or_test_system  reported_result
 0          CSc1ccc(N(C)c2nc(C)nc3c2CCC3)cc1         HS 578T breast             29.8
 1  Cc1cccc(C)c1NC(=O)CSC(=S)N1CCN(CCOCCO)CC1         HS 578T breast              104
 2  COc1cccc(-c2nn(-c3ccccc3)cc2-c2ccnc(NCCCNS(=O)(=O)c3ccccc3)c2)c1         HS 578T breast             37.5
 3  CCN1CCN(c2nc(C)cc(N(CCCNc3ccnc4cc(Cl)ccc34)Cc3ccco3)n2)CC1         HS 578T breast             70.3
 4       COc1ccc(CCN2C(=O)C(C)(C)SC2=S)cc1OC         HS 578T breast              107
 5  CN1CCN(CCOc2ccc(-c3cnc4c(-c5cccc(F)c5)cnn4c3)cc2)CC1         HS 578T breast             77.6
 6          CC(C)(C)c1nc(-c2ccc(O)c(O)c2)cs1         HS 578T breast             85.9
 7  COc1ccc2c3c(c4ccccc4cc13)C(=O)N(CCN(C)CCN)C2=O         HS 578T breast             24.8
 8  COc1cnc2c(c1)C(=O)c1c-2n(CCCNCCN2CCOCC2)c(=O)c2cc([N+](=O)[O-])ccc12         HS 578T breast             26.7
 9  COC(=O)[C@]12CC[C@@H](C)[C@H](C)[C@@H]1C1=CC[C@@H]3[C@@]4(C)C=C(O)C(=O)C(C)=C4CC[C@@]3(C)[C@]1(C)CC2         HS 578T breast             33.2
10  COc1ccc(C2CC(=O)c3c(nc4ccc(Cl)cc4c3N)C2)cc1 (centres undefined)         HS 578T breast              115
11  COc1cc(/C=C/c2cc(/C=C/c3ccc(O)c(OC)c3)n(-c3ccc(Cl)cc3)c(=O)n2)ccc1O         HS 578T breast             87.4
12  COc1ccc(-c2cc(-c3c(C)oc4cc5occc5c(OC)c4c3=O)nc(N)c2C#N)cc1OC         HS 578T breast             53.5
13  Cc1nn2c(-c3nc4cc(Cl)c(Cl)cc4[nH]3)c(-c3ccc(F)cc3)nc2s1         HS 578T breast             1.04
14  C[C@@H](C(=O)O)c1ccc2c3cc(Cl)ccc3n(Cc3cc(=O)oc4ccc(Cl)cc34)c2c1         HS 578T breast              101
15  N#CCCCCCn1c2ccccc2c2c3[nH]c(=O)[nH]c(=O)c3c3c4ccccc4n(CCCCCC#N)c3c21         HS 578T breast             51.6
16   Brc1cnc2[nH]cc(-c3nnc(-c4ccccc4)o3)c2c1         HS 578T breast             79.2
17  Cc1cc(Cl)nc(N(CCNc2ccnc3cc(Cl)ccc23)Cc2ccco2)n1         HS 578T breast             79.2
18  O=S(=O)(NCCNc1cc(-c2cn(-c3ccccc3)nc2-c2cccc(O)c2)ccn1)c1ccc(Br)cc1         HS 578T breast             24.8
19  CC1(C)NC2=C(C(Nc3cccnc3)N1)C(c1ccc([N+](=O)[O-])cc1)C(C(=O)c1ccc(N=[N+]=[N-])cc1)O2 (centres undefined)         HS 578T breast              102
20  C=C(C)[C@@H]1CC[C@]2(C(=O)OC)CC[C@]3(C)[C@H](CC[C@@H]4[C@@](C)(CC/C(N)=N/O)[C@H](C(=C)C)CC[C@]43C)[C@@H]12         HS 578T breast             93.9
21           C/C(=N\Nc1ccc2ccccc2n1)c1ccccn1         HS 578T breast               49
22       Cc1cccc(C)c1NCc1nc(-c2ccccc2)n[nH]1         HS 578T breast              108
23  COc1ccc2c(c1)c(-c1nc(-c3cn(C)c4ncccc34)cs1)cn2CCN         HS 578T breast             85.6
24  CCOC(=O)N1CCN(CCCCOc2ccc(C(C)(C)CC)cc2)CC1         HS 578T breast              108
25                 Cc1cc(N=O)cc(C(C)(C)C)c1O         HS 578T breast             90.8
26    COC(=O)c1cc(=O)nc(N/N=C/c2ccc(C)cc2)s1         HS 578T breast              110
27  O=C1c2cccc3cccc(c23)C(=O)N1CC#Cc1ccc2c3c(cccc13)C(=O)N(CCO)C2=O         HS 578T breast             83.3
28  COc1cc2c(cc1-c1c(C)noc1C)ncc1nc(C3CC3)n([C@H](C)COC(F)F)c12         HS 578T breast             8.14
29  C[C@H]1[C@H]2C3=CC[C@@H]4[C@@]5(C)C/C(=C/c6ccco6)C(=O)C(C)(C)[C@@H]5CC[C@@]4(C)[C@]3(C)CC[C@@]2(C(=O)N2CCOCC2)CC[C@@H]1C         HS 578T breast             77.9
30  Cn1cc(-c2nc(-c3c[nH]c4ncccc34)cs2)c2cc(F)ccc21         HS 578T breast             66.8
31                  [B-][N+](CC)(CC)c1ccccc1         HS 578T breast              120
32  CC(CNc1nc(Nc2ccc(Cl)c(Cl)c2)nc(C(Cl)(Cl)Cl)n1)N(C)C (centres undefined)         HS 578T breast            -20.8
33  CN(C)CCCC1(c2ccc(F)cc2)OCc2cc(-c3ccc(C(F)(F)F)nc3)ccc21 (centres undefined)         HS 578T breast             61.9
34  Cc1cc(C)c(NC(=O)c2sc3nc4c(cc3c2N)CCCC4)c(C)c1         HS 578T breast             46.2
35  Cc1cc(N2CCOCC2)nc(N(CCCNc2ccnc3cc(Cl)ccc23)Cc2ccco2)n1         HS 578T breast             69.5
36  CC(C)(C)n1cc(-c2ccnc(NCCCNS(=O)(=O)c3ccc(Cl)cc3)c2)c(-c2cccc(F)c2)n1         HS 578T breast             87.9
37                                O=C1CNCCN1         HS 578T breast              100
38          Oc1ccccc1/C=N\NC(=S)Nc1ccc(F)cc1         HS 578T breast             32.5
